- System: SNB-19 CNS
- ASSAY PROTOCOL: NCI tumour cell line growth inhibition, 48 h
EXPERIMENTAL ENDPOINT: TGI

[
  {
    "SMILES INPUT": "CCSc1nc2cccc([N+](=O)[O-])c2n1CC",
    "TGI": "> 100 µM"
  },
  {
    "SMILES INPUT": "CCOc1ccc(/C(Cl)=C(\\C=O)c2ccc(OC)c(OC)c2)cc1OCC",
    "TGI": "> 100 µM"
  }
]

// moving on: another record for TGI
Incoming: Field: TGI (SNB-19 CNS). Entry: COc1cc(OC)nc(-n2c(N)c(C#N)c3ccc([N+](=O)[O-])cc3c2=O)n1
Outgoing: > 100 µM
